Target: UniProtKB Q06187
Sequence (Q06187 whole entry): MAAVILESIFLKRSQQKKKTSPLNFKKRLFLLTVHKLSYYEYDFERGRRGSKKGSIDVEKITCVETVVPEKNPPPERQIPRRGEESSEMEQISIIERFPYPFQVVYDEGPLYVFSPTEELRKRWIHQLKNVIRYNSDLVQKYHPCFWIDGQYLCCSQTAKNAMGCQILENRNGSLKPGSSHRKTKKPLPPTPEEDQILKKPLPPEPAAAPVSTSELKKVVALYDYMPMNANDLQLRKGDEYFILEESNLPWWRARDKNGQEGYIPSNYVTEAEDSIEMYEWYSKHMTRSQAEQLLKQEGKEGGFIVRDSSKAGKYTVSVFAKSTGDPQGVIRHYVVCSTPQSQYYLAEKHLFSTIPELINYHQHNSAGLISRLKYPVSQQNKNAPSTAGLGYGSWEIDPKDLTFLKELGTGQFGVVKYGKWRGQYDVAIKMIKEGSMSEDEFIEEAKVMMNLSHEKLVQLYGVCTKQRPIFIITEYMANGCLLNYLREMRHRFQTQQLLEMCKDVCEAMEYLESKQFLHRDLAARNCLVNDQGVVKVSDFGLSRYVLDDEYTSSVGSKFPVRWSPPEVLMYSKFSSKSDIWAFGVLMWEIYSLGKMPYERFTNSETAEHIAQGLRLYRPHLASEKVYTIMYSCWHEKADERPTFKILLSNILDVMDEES
Assay: Degradation of BTK protein in Namalwa cells (Western blot; DC50, Dmax)
QUANTITY: Dmax

{"COMPOUND": "Nc1ncnc2c1c(-c1ccc(Oc3ccccc3)cc1)nn2C1CCN(CC2CCN(CCCN3CCC(c4ccc5c(c4)C(=O)N(C4CCC(=O)NC4=O)C5=O)CC3)CC2)CC1 (stereo not drawn)", "Dmax": "> 75%"}
{"COMPOUND": "Nc1ncnc2c1c(-c1ccc(Oc3ccccc3)cc1)nn2C1CCN(C2CCN(CCN3CCN(c4ccc5c(c4)C(=O)N(C4CCC(=O)NC4=O)C5=O)CC3)CC2)CC1 (stereo not drawn)", "Dmax": "> 75%"}

For record NC(=O)c1c(-c2ccc(Oc3ccccc3)cc2)nn2c1NCCC2C1CCN(CC2CCN(C(=O)N3CCC(CN4CCC(c5ccc6c(c5)C(=O)N(C5CCC(=O)NC5=O)C6=O)CC4)CC3)CC2)CC1 (stereo not drawn) the listed Dmax is > 75%
